# targetDesc: Platelet-derived growth factor receptor alpha (Homo sapiens) (UniProt P16234)
# Sequence (P16234 whole entry): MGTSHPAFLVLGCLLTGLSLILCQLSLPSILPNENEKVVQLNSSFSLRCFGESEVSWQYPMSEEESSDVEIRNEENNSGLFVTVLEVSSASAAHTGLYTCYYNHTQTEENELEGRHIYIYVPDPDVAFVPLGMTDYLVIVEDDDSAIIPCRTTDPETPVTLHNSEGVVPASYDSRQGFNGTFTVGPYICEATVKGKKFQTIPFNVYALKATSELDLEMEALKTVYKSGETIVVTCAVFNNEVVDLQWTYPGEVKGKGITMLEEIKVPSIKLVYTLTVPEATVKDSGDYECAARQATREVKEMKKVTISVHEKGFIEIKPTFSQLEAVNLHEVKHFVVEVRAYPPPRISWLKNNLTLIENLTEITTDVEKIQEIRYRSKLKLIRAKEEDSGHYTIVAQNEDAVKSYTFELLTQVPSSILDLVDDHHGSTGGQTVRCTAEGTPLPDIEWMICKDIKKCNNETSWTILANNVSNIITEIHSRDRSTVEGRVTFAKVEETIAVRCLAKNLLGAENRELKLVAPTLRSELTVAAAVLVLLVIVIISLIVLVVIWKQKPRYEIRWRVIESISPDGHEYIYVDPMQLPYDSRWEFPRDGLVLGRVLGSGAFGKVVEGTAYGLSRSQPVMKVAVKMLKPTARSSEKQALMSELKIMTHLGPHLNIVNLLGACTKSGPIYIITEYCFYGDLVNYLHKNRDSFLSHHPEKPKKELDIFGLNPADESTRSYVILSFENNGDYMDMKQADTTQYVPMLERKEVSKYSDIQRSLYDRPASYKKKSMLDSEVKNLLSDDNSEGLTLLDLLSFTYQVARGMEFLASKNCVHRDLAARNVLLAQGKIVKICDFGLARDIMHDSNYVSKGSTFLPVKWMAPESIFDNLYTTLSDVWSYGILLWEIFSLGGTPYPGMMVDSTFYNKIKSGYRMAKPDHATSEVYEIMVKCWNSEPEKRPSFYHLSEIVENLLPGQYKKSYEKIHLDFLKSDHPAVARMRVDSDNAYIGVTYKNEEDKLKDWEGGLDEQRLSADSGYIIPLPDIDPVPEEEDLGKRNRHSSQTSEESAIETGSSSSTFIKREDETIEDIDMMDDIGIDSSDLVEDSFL
# protocol: Inhibition of PDGFRA (unknown origin) at 500 nM
inhibition values, listed per item

# givenSmiles, inhibition
measured = [
    ("C#Cc1cccc(Nc2ncnc3sc(-c4ccc(CO)cc4OC)cc23)c1", "-9%"),
    ("COc1cc(CO)ccc1-c1cc2c(Nc3ccccc3)ncnc2s1", "7%"),
    ("COc1cc(CO)ccc1-c1cc2c(Nc3ccc(F)c(Cl)c3)ncnc2s1", "5%"),
]

Short answer for `COc1cc(CO)ccc1-c1cc2c(N[C@H](CO)c3ccccc3)ncnc2s1` : inhibition was 1%

Short answer for `C[C@@H](Nc1ncnc2sc(-c3ccc(C(=O)NCCN(C)C)cc3)cc12)c1ccccc1` : inhibition was 15%

All values here come from ChEMBL document CHEMBL3758163.
